test: soluble on expression in E. coli; label from the status in PepcDB or PDB records
endpoint.label: soluble on expression in E. coli

MGSDKIHHHHHHMLIEIPNVFSKQEVNQLREQLDARTWIDGNQTSGMMASTRKRNQQLDKDDPVALQIGELIMARLLAHPLFVSAALPLQFYPPLFNRYQGGDTFGYHIDNAIRSTSDGMVRTDLSATLFLSELNAYEGGELVIQDTYGQQSIKLAAGSLVLYPSTSLHQVTPVTSGERTSAFMWLQSMVRDEGQRRLLFQLDQSIQTLTAQQAAEQELFNLTGVYHNLLRRWSEL :: not soluble
MGYLHIDGRGMKPNGGSRHNPLEAETIAAWLVAHKDDIERHYGEPLYKVVGVVTPFSAQVNAIKMSLRKLEINGKDEQGLLTVGTVHSLQGAERAIVLFSPVYSKHEDGRFLDSNSTILNVAVSRAKDSFLVFGDMDLIEMQPAFSPRGLLAKYLFSSDNNALQFEFQKRQDLISAHTQISTLHGVEQHDEFLNKTLAGAQKKITIISPWLSWQKVEQTGFLASMALARSRGIDITVVTDKNCNIAHVDDDKRQEKQHLLNDAVEKLNKMGIATKLVNRVHSKIVIEDEELLCVGSFNWFSATREDKYQRYDTSLVYRGEGVKNEIKAIYGSLDQRQLMGHHHHHHSH :: not soluble
